Values from PubChem BioAssay (EPA / NIEHS)

Read-out: Monokine induced gamma interferon (MIG), CXCL9 (gene 4283)
assay-overview: BSK_hDFCGF_MIG: BioMAP Diversity Plus: hDFCGF Assay for Monokine induced gamma interferon (MIG) Biomarker Activity (AID 2283063)
setup-conditions: primary human foreskin fibroblasts; actives raise or lower the signal
The source made the active and inactive calls. How the source made its calls: active means hit-call score of the fitted dose curve at least 0.9, where 1 is the maximum; inactive means score below 0.9.
test-readout: AC50

Would you please look over these solved cases?
compound: Clc1cccc(C(Cl)(Cl)Cl)n1
measured: inactive

compound: Cc1ccc(N=CN(C)C=Nc2ccc(C)cc2C)c(C)c1
measured: 29.7 µM (active)

compound: O=P(O)(O)CCCl
measured: inactive

compound: CCNC(=O)NC(=O)C(C#N)=NOC
measured: inactive

compound: O=c1n(Cl)c(=O)n(Cl)c(=O)n1Cl
measured: inactive

QUERY: Which value of AC50 has been reported for CCCCOCN(C(=O)CCl)c1c(CC)cccc1CC in the records?
RESULT: 33.3 µM (active)

QUERY: Thanks! And COP(=S)(OC)Oc1ccc([N+](=O)[O-])c(C)c1 ?
RESULT: inactive

QUERY: Thanks! And CCC(C)n1c(=O)[nH]c(C)c(Br)c1=O (stereo not drawn) ?
RESULT: inactive

====

assay-overview: BSK_SAg_Proliferation: Cell Proliferation Assessment in the BioMAP Diversity Plus: SAg Assay (AID 2283095);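 further: relative cell number as total protein by SRB absorbance in sub-confluent culture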
setup-conditions: primary human HUVEC with PBMC
Calls of active or inactive are those of the source. Rule for the calls: active = hit-call score of the fitted dose curve at least 0.9, where 1 is the maximum; inactive = score below 0.9.
# output must be one of Y (active), N (inactive)

Solved cases (5 shown):
compound: CN/C(=N\[N+](=O)[O-])NCc1cnc(Cl)s1
assigned-class: N
--
compound: CCCCC(O)(Cn1cncn1)c1ccc(Cl)cc1Cl (stereo unspecified)
assigned-class: Y
--
compound: CC(C)N1C(=O)N(c2ccccc2)CSC1=NC(C)(C)C
assigned-class: Y
--
compound: N#CN=C1SCCN1Cc1ccc(Cl)nc1
assigned-class: N
--
compound: CO/N=C(/C1=NOCCO1)c1ccccc1Oc1ncnc(Oc2ccccc2Cl)c1F
assigned-class: Y

# evaluate next
QUERY: Look up the recorded call for CNC(=O)N(C)c1nnc(C(C)(C)C)s1 in this test.
RESULT: N

====

assay-overview: APR_HepG2_CellLoss_24hr: Apredica 24-hour HepG2 Assay for Cell Loss (AID 2282908)
setup-conditions: high-content imaging
Active and inactive are the calls of the source. Rule for the calls: active = hit-call score of the fitted dose curve at least 0.9, where 1 is the maximum; inactive = score below 0.9.
# output must be one of True for active, False for inactive

Solved cases (10 shown):
compound: CN/C(=N\[N+](=O)[O-])NCc1cnc(Cl)s1
assigned-class: False

compound: CC1(C)CON(Cc2ccccc2Cl)C1=O
assigned-class: False

compound: N#Cc1c(Cl)cccc1Cl
assigned-class: False

compound: COC(=O)NC(=S)Nc1ccccc1NC(=S)NC(=O)OC
assigned-class: False

compound: CCOc1nc(F)cc2nc(S(=O)(=O)Nc3c(Cl)cccc3Cl)nn12
assigned-class: False

compound: CO/N=C(/C1=NOCCO1)c1ccccc1Oc1ncnc(Oc2ccccc2Cl)c1F
assigned-class: False

compound: CC1(C)C(C(=O)OC(C#N)c2cccc(Oc3ccccc3)c2)C1(C)C (stereo unspecified)
assigned-class: False

compound: CCN(CC)C(=O)C(C)Oc1cccc2ccccc12 (stereo unspecified)
assigned-class: False

compound: O=P(O)(O)CCCl
assigned-class: False

compound: O=c1n(Cl)c(=O)n(Cl)c(=O)n1Cl
assigned-class: False

QUERY: Look up the recorded call for CNC(=O)N(C)c1nnc(C(C)(C)C)s1 in this test.
RESULT: False

QUERY: Thanks! And CCN(CC)c1nc(C)cc(OP(=S)(OC)OC)n1 ?
RESULT: False

QUERY: Thanks! And CCCC(=NOCC)C1=C(O)CC(CC(C)SCC)CC1=O (stereo unspecified) ?
RESULT: False

QUERY: Thanks! And Nc1c(Cl)c(F)nc(OCC(=O)O)c1Cl ?
RESULT: False

QUERY: Thanks! And OC(c1ccc(Cl)cc1)(c1ccc(Cl)cc1)C(Cl)(Cl)Cl ?
RESULT: True

QUERY: Thanks! And C=CCOC(=O)C(C)(C)OC(=O)c1cc(-n2c(=O)cc(C(F)(F)F)n(C)c2=O)ccc1Cl ?
RESULT: False

QUERY: Thanks! And COP(=O)(OC)O/C(C)=C/C(=O)N(C)C ?
RESULT: False

QUERY: Thanks! And COC(=O)NS(=O)(=O)c1ccc(N)cc1 ?
RESULT: False

QUERY: Thanks! And CC(C)N1C(=O)c2ccccc2NS1(=O)=O ?
RESULT: False

QUERY: Thanks! And C=C(C)CN(CC)c1c([N+](=O)[O-])cc(C(F)(F)F)cc1[N+](=O)[O-] ?
RESULT: False
